# Protocol Notes: Cytotoxicity assay (MTS) on Vero cells
# Type: cell-based, African green monkey
# Test Settings: African green monkey, Vero cells, MTS, 3 days incubation, n=3; read-out: CC50 ±SEM (50% cytotoxic concentration on vero cells)
Measured Parameter: CC50 at 3 days (µg/mL)
# unit: µg/mL | format: bare number

Qu. Tell me the measured CC50 at 3 days of `C=C(C)[C@@H]1CC[C@]2(CO)CC[C@]3(C)[C@H](CC[C@@H]4[C@@]5(C)CC[C@H](O)C(C)(C)[C@@H]5CC[C@]43C)[C@@H]12` , please.
Ans. 661

====

# Protocol Notes: Cytotoxicity assay (MTS) on Vero cells
# Format: cell-based, African green monkey
# Test Settings: African green monkey, CC50 ±SEM (50% cytotoxic concentration on vero cells)
Measured Parameter: CC50 at 3 days (µg/mL)
Write down the numeric answer in µg/mL and omit the unit.

>>> experimental_result("Nc1nc2c(ncn2COCCO)c(=O)[nH]1 [Acyclovir, reference compound]")
128

Qu. Please report the recorded CC50 at 3 days for C[C@H](C/C=C/C(C)(C)O)[C@H]1CC[C@@]2(C)C3CCC4C(C)(C)[C@@H](O)CC[C@@]45C[C@@]35CC[C@]12C (stereo partly drawn) [(3β,23E)-Cycloarta-23-ene-3,25-diol, Cycloart-23E-ene-3β,25-diol] .
Ans. 1090
